Provenance of the data: patent US12037324B2

target: AGTR1 (Homo sapiens, UniProt P30556); construct: host or cells: Pathunter CHO-K1 AGTR1 β-arrestin cell line (CHO-K1); assay: DiscoveRx IP1 accumulation assay (HTRF), agonist mode, Pathunter CHO-K1 AGTR1 β-arrestin cell line; format: cell-based
Sequence (P30556 whole entry): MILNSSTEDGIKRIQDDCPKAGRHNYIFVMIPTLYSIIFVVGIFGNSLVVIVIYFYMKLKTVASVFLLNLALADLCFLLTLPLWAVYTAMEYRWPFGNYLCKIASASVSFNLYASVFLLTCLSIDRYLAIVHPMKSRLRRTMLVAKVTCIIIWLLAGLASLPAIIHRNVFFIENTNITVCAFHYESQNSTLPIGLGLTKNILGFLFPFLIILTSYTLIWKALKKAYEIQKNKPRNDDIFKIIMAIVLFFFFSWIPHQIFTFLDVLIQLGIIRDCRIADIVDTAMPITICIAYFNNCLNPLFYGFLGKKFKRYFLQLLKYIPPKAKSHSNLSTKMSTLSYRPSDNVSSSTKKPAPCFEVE
READOUT_KIND: IP-1 Ymax (%)
Please state the figure in %; there is no need to write the unit.

For the compound CCCCOC(=O)NS(=O)(=O)c1sc(-c2ccccc2)cc1-c1ccc(Cn2c(CC)nc3c(C)cc(C)nc32)cc1 , give its reported IP-1 Ymax (%).
4.2

# return recorded IP-1 Ymax (%) for entry CCc1nc2c(C)cc(C)nc2n1Cc1ccc(-c2cc(-c3ccc(OC)cc3)ccc2-c2nn[nH]n2)cc1
8.1

Consider the compound CCc1nc2c(C)cc(C)nc2n1Cc1ccc(-c2cc(-c3ccccn3)ccc2C(=O)O)cc1 . State its measured IP-1 Ymax (%).
11.1

Let me know recorded IP-1 Ymax (%) for CCc1nc2c(C)cc(C)nc2n1Cc1ccc(-c2cc(-n3cc(C4CC4)nn3)ccc2-c2nnn[nH]2)cc1 , thanks.
7.0
